Molecular target: T1, human IL-12 (human, UniProt P29459 23-219; P29460 23-328)
T1 construct: recombinant human IL-12 heterodimer (p35/p40, disulfide-linked); also called hIL-12; rhIL-12
T1 sequence (looked up) 1: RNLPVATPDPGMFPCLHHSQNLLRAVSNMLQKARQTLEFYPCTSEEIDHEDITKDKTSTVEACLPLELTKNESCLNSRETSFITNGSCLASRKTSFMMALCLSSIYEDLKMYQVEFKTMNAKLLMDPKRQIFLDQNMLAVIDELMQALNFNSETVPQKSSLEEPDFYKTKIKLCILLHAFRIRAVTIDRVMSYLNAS
T1 sequence (looked up) 2: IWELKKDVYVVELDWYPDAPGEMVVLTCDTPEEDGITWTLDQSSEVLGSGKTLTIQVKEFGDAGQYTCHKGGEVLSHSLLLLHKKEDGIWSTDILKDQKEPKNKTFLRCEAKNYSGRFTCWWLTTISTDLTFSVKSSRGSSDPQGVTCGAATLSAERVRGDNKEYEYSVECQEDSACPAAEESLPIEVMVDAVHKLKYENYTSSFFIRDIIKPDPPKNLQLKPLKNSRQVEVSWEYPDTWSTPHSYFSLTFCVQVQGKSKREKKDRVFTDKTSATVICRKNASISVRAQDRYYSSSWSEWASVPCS
Assay: RB assay: 125I-hIL-12 binding to PHA blasts
observed property: log10 IC50 (log10 of the value in nM)

[
  {
    "binder": "103-14 & 9 (scFv, V domains shown, scFv) VH: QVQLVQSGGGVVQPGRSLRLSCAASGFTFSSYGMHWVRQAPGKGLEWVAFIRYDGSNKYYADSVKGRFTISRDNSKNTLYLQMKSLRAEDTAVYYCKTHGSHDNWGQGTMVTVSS VL: SYVLTQPPSVSGTPGQRVTISCSGGRSNIGSNTVKWYQQLPGTAPKLLIYGNDQRPSGVPDRFSGSKSGTSASLAITGVQAEDEADYYCQSYDRGFTGSMVFGTGTKVTVL",
    "log10 IC50": -1.40
  },
  {
    "binder": "170-23 (scFv, V domains shown, scFv) V domain 1: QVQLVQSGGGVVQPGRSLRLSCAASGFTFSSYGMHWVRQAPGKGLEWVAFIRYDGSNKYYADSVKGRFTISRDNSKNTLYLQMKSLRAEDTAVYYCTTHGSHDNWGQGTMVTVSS V domain 2: SYVLTQPPSVSGTPGQRVTISCSGGRSNIGSNTVKWYQQLPGTAPKLLIYGNDQRPSGVPDRFSGSKSGTSASLAITGVQAEDEADYYCQSYDRGFTGARVWGTGTKVTVL",
    "log10 IC50": -0.70
  },
  {
    "binder": "73-B7 (scFv, V domains shown) VH: QVQLVQSGGGVVQPGRSLRLSCAASGFTFSSYGMHWVRQAPGKGLEWVAFIRYDGSNKYYADSVKGRFTISRDNSKNTLYLQMKSLRAEDTAVYYCTTHGSQDNWGQGTMVTVSS VL: SYVLTQPPSVSGTPGQRVTISCSGGRSNIGSNTVKWYQQLPGTAPKLLIYGNDQRPSGVPDRFSGSKSGTSASLAITGVQAEDEADYYCQSYDSSLRGSRVFGTGTKVTVLG",
    "log10 IC50": 0.85
  },
  {
    "binder": "103-4 (scFv, V domains shown, scFv) VH: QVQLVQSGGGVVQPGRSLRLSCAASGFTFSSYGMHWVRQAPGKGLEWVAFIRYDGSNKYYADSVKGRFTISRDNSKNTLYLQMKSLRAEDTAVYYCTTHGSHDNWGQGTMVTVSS VL: SYVLTQPPSVSGTPGQRVTISCSGGRSNIVSNTVKWYQQLPGTAPKLLIYGNDQRPSGVPDRFSGSKSGTSASLAITGVQAEDEADYYCQSYDRGFTGARVFGTGTKVTVL",
    "log10 IC50": -1.07
  },
  {
    "binder": "78-34 (scFv, V domains shown, scFv) VH: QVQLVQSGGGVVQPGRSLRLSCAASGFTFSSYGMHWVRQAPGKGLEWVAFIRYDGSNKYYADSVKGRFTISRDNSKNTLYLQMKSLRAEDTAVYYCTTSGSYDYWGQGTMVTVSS VL: SYVLTQPPSVSGTPGQRVTISCSGGRSNIGSNTVKWYQQLPGTAPKLLIYGNDQRPSGVPDRFSGSKSGTSASLAITGVQAEDEADYYCQSYDRGFTGSRVFGTGTKVTVL",
    "log10 IC50": 2.30
  },
  {
    "binder": "149-11 (scFv, V domains shown, scFv) VH: QVQLVQSGGGVVQPGRSLRLSCAASGFTFSSYGMHWVRQAPGKGLEWVAFIRYDGSNKYYADSVKGRFTISRDNSKNTLYLQMKSLRAEDTAVYYCTTHGSHDNWSQGTMVTVSS VL: SYVLTQPPSVSGTPGQRVTISCSGGRSNIGSNTVKWYQQLPGTAPKLLIYGNDQRPSGVPDRFSGSKSGTSASLAITGVQAEDEADYYCQSYDNGFTGARVFGTGTKVTVL",
    "log10 IC50": -0.70
  },
  {
    "binder": "149-6 (scFv, V domains shown, scFv) VH: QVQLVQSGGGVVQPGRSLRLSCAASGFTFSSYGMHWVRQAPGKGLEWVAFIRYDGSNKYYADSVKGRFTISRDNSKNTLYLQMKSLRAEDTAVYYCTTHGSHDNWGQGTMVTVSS VL: SYVLTQPPSVSGTPGQRVTISCSGGRSNIVSNTVKWYQQLPGTAPKLLIYGNDQRPSGVPDRFSGSKSGTSASLAITGVQAEDEADYYCQSYDRGFTGSRVFGTGTKVTVLG",
    "log10 IC50": -0.22
  },
  {
    "binder": "136-24 (scFv, V domains shown, scFv) VH: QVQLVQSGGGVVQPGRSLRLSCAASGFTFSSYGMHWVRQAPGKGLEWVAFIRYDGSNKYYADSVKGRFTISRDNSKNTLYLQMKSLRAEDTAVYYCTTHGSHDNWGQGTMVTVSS VL: SYVLTQPPSVSGTPGQRVTISCSGGRSNIGSNTVKWYQQLPGTAPKLLIYGNDQRPSGVPDRFSGSKSGTSASLAITGVQAEDEADYYCQSYDNAVTASKVFGTGTKVTVL",
    "log10 IC50": 0.00
  },
  {
    "binder": "78-35 (scFv, V domains shown, scFv) VH: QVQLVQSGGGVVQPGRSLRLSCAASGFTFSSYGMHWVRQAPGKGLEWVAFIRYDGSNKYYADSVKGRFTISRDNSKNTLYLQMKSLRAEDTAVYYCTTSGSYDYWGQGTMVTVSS VL: SYVLTQPPSVSGTPGQRVTISCSGGRSNIGSNTVKWYQQLPGTAPKLLIYGNDQRPSGVPDRFSGSKSGTSASLAITGVQAEDEADYYCQSYDSSLTGSRVFGTGTKVTVL",
    "log10 IC50": 2.60
  },
  {
    "binder": "101-11 IgG1 (antibody, V domains shown, IgG1) VH: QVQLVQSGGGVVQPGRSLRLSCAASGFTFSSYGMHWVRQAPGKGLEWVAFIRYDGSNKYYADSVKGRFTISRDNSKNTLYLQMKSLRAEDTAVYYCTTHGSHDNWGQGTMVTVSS VL: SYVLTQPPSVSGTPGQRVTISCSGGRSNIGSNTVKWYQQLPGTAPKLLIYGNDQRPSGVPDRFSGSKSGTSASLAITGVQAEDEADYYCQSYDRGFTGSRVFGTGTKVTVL",
    "log10 IC50": 0.20
  }
]
